Ref: the NIST ThermoML archive (doi:10.1021/je034053i)

test: refractive index (Na D-line) (dimensionless); conditions: 298.15 K; 101.33 kPa; Liquid; Standard Abbe refractometry
readout: refractive index

INSERT INTO assay_data (structure_notation, reported_measurement) VALUES
  ('CCCCCCCC', 1.3951),
  ('CCCCO', 1.3973),
  ('CCCCCCO', 1.4159),
  ('CCCCCCCO', 1.4224),
  ('CCCCCCCCO', 1.4274),
  ('CCO', 1.3593),
  ('CCCCCO', 1.408),
  ('CCCO', 1.383);

* * *

settings: 298.15 K; 101.33 kPa; Liquid
readout: mass density (kg/m3)

INSERT INTO results (structure_notation, reported_measurement) VALUES
  ('CCCCCCCO', 818.75),
  ('CCCCCCCCO', 821.63),
  ('CCCCCCO', 815.15),
  ('CCCCCO', 810.83),
  ('CCCO', 799.62),
  ('CCCCCCCC', 698.5),
  ('CCCCO', 805.76),
  ('CCO', 785.15);

* * *

settings: 298.15 K, Drop volume
readout: surface tension liquid-gas (mN/m)

INSERT INTO assay_data (structure_notation, reading_unit, reported_measurement) VALUES
  ('CCCCCO', 'mN/m', 24.97),
  ('CCO', 'mN/m', 21.74),
  ('CCCCCCCO', 'mN/m', 26.47),
  ('CCCCCCCC', 'mN/m', 21.17),
  ('CCCCCCO', 'mN/m', 25.73),
  ('CCCCCCCCO', 'mN/m', 27.13),
  ('CCCCO', 'mN/m', 24.02),
  ('CCCO', 'mN/m', 23.39);
